Values from patent US4166125A

test: Acute toxicity (2) (oral administration); assay type: in vivo; settings: in vivo; rat, oral, 7 days
Test readout: LD50 at 168 h

Request: Give me measured LD50 at 168 h, please, for this compound: CC(C(=O)C(N)=O)c1ccc(N2Cc3ccccc3C2=O)cc1 (stereo not shown)
Result: > 4000 mg/kg

---

test system: gastric mucosa; assay: Effect on gastric mucosa (2) (oral administration); type: in vivo, rat (Sprague-Dawley strain); conditions: rats, 50 mg/Kg oral, 4 hours
Test readout: Mean number of gastric lesion
Enter the number alone.

>>> measurement("CC(=O)Oc1ccccc1C(=O)O")
5.4
>>> measurement("CC(C(=O)C(N)=O)c1ccc(N2Cc3ccccc3C2=O)cc1 (stereo not shown)")
0
>>> measurement("CC(C(=O)C(=O)O)c1ccc(N2Cc3ccccc3C2=O)cc1 (stereo not shown)")
0

Request: Give me measured Mean number of gastric lesion, please, for this compound: `CCCCC1C(=O)N(c2ccccc2)N(c2ccccc2)C1=O`
Result: 0.2
